# System: HL-60
# ASSAY OVERVIEW: Standard thymidine incorporation assay (TdR) was carried out for 48 hr with an 8 hr pulse of [3H]- thymidine (TdR8) (n=7) and ID50 value was evaluated
# Type: functional
# EXPERIMENTAL SETUP: Homo sapiens, read-out: ID50 (the source's name)
ATTRIBUTE MEASURED: pIC50
Note on units: pIC50 is unitless, being -log10 of a concentration expressed in mol/L.

What pIC50 value was documented for this compound, CCCCCCCCCCCCCCCCCCSCC(C[N+](C)(C)CCCO)OC (stereo unspecified) ?
5.61
